Test system: L1210 leukemia ip in BDF1 mice, survival T/C
assay protocol: NCI In Vivo Anticancer Drug Screen. Data for tumor model L1210 Leukemia (intraperitoneal) in B6D2F1 (BDF1) mice
condition description: endpoint: mean survival time; dose: 100.0 mg/kg/injection; schedule: Q04DX003 (ip); vehicle: saline; higher = longer survival
Toxic doses and inconclusive results are not listed.
Listing of recorded T/C by entry.

Sample answers from the record:
{"columns": ["molecule", "result"],
 "data": [
  ["CCOC1=CC(=O)CCC1", "98 % of control"],
  ["COc1cc2c(cc1OC)CC(=O)NC2", "95 % of control"],
  ["Cc1cc(C)c2nc(-c3ccc(F)cc3)cc(C(=O)O)c2c1", "97 % of control"],
  ["CCc1c[n+]([O-])c(C)cc1[N+](=O)[O-]", "101 % of control"],
  ["CS(=O)CCNC(=O)NS(=O)(=O)c1ccc(Cl)cc1 (configuration not stated)", "97 % of control"]
]}

[ask] // lookup T/C for "COc1cc(C(=O)N(C)C)nc(OC)n1"
[reply] 106 % of control

[ask] Same thing, different molecule: "OCC1CC[N-]CC1.OCC1CC[N-]CC1.[Cl][Pt+2]([Cl])([Cl])[Cl]"
[reply] 104 % of control
